Give Inhibition for every item shown.
# Organism: Rattus norvegicus
# procedureDetails: Percent inhibition on GH release from rat pituitary cells
# Assay type: functional, Pituitary gland cell
# Design: concentration or dose not given beside the values
In your response, put the unit directly after the numeric value.

Inhibition reported for this compound CC(C)[C@@H]1NC(=O)[C@H](CCCCN)NC(=O)[C@@H](Cc2c[nH]c3ccccc23)NC(=O)[C@H](Cc2ccc(O)cc2)NC(=O)[C@@H](NC(=O)[C@H](N)Cc2ccc(N)c(I)c2)CSSC[C@@H](C(=O)N[C@H](C(N)=O)[C@@H](C)O)NC1=O : 60%

Inhibition reading for CC(C)[C@@H]1NC(=O)[C@H](CCCCN)NC(=O)[C@@H](Cc2c[nH]c3ccccc23)NC(=O)[C@H](Cc2ccc(O)cc2)NC(=O)[C@@H](NC(=O)[C@H](N)Cc2ccc(N)cc2)CSSC[C@@H](C(=O)N[C@H](C(N)=O)[C@@H](C)O)NC1=O : 47%

response.value for CC(C)[C@@H]1NC(=O)[C@H](CCCCN)NC(=O)[C@@H](Cc2c[nH]c3ccccc23)NC(=O)[C@H](Cc2ccc(O)cc2)NC(=O)[C@@H](NC(=O)[C@H](N)Cc2ccc(N)cc2)CSSC[C@@H](C(=O)N[C@H](CC(=O)O)C(N)=O)NC1=O (field: Inhibition) = 18%

// CC(C)[C@@H]1NC(=O)[C@H](CCCCN)NC(=O)[C@@H](Cc2c[nH]c3ccccc23)NC(=O)[C@H](Cc2ccc(O)cc2)NC(=O)[C@@H](NC(=O)[C@H](N)Cc2ccc(N)cc2)CSSC[C@@H](C(=O)N[C@@H](CC(=O)O)C(N)=O)NC1=O : Inhibition value = 41%
